System: HOP-62 NSCLC
Assay: NCI-60 one-dose screen, 48 h (100 = growth as untreated, 0 = no growth, -100 = all killed)
Conditions: 10 µM unless noted
This is part of a sample that, as a whole, favours compounds with a hit. Of some 83,000 tested, about 20% had one in any assay.
Quick reference for growth among some compounds
property_name: growth (%)

In [3]: df
Out[3]:
                                   compound  property_name  display_unit  value_observed
0  COc1ccc2c(c1)c(-c1cc(N)n3nc(-c4cn(C)c5ccccc45)cc3n1)cn2C         growth             %           -59.6
1  C#CCOc1ccc(/C=N/Nc2nc(-c3cc4cc(Br)ccc4oc3=O)cs2)cc1OC         growth             %            51.7
2  C#C[C@]1(O)CC[C@H]2[C@@H]3CC=C4c5sc(-c6ccc([N+](=O)[O-])cc6)nc5CC[C@]4(C)[C@H]3CC[C@@]21C         growth             %            23.5
3  CCOP(=O)(OCCCl)c1nc(-c2ccc(C)cc2)oc1NCc1ccccc1 (centres undefined)         growth             %            93.9
4  C=C1CCC2C3(C)COC(c4cc(F)cc(F)c4)OC3CCC2(C)C1CC(O)C1=CCOC1=O (centres undefined)         growth             %            90.6
5  O=C(C1=CNC(=S)NC1c1ccc(O)cc1)c1cc2ccccc2oc1=O (centres undefined)         growth             %            91.4
6  CCCSc1nc(Nc2ccc(S(N)(=O)=O)cc2)c(C#N)c(-c2ccc(Cl)cc2)n1         growth             %            -2.6
7  CN1CCc2c(sc3ncnc(N/N=C/c4ccc(Cl)cc4Cl)c23)C1         growth             %            27.1
8  CCN(CC)CCOc1ccc(Nc2ncc3cc(-c4ccc(O)c(C#N)c4)c(=O)n(C)c3n2)cc1         growth             %            91.1
